Target: GST-Aq-NF-kB (Amphimedon queenslandica, UniProt A9Y5G7 2-389)
Sequence: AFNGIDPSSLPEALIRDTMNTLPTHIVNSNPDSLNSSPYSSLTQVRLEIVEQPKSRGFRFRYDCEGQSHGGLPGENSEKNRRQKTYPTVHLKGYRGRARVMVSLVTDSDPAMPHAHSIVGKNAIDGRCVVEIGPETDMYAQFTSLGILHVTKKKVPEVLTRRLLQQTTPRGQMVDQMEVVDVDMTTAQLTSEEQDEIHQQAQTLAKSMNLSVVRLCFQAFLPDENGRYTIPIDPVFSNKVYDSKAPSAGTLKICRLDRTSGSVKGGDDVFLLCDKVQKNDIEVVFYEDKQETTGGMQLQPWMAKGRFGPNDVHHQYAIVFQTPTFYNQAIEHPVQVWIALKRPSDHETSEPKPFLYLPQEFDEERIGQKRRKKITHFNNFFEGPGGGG
Experiment: protein-binding microarray (PBM); PBM: ~300 nM protein, 6 mM HEPES pH 7.8, 80 mM KCl, 0.5 mM EDTA, 0.5 mM EGTA, 6% glycerol, 35 ng/ul poly-dIdC, 1% milk, 1 h, room temperature; high values mean tight binding
Settings: dsDNA, one strand shown
Mark 1 (yes) for binding signal under 5 z-score, 0 (no) if at or over.

Query: binding signal under 5 z-score? Item: CCGATTAACATCAAAAAGTTCCCTGATGTTAATCGGGTCTTGATTCGCTTGACGCTGCTG
Result: 0 (no)

Query: What do we get for CCGATTAACATCAAAAAATTCCGTGATGTTAATCGGGTCTTGATTCGCTTGACGCTGCTG ?
Result: 1 (yes)

====

Molecular target: GST-Dm-Relish (Drosophila melanogaster, UniProt Q94527 99-473)
Sequence: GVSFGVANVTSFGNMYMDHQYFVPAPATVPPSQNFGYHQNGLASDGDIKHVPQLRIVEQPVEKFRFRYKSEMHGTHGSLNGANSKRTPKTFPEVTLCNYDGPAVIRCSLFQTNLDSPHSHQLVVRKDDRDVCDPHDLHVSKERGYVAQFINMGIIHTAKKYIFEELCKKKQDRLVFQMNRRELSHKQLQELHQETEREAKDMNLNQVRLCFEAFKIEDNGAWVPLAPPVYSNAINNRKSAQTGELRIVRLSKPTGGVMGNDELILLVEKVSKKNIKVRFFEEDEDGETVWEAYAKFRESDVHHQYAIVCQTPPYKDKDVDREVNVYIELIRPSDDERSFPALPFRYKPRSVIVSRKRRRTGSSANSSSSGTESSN
Test: protein-binding microarray (PBM); PBM: ~300 nM protein, 6 mM HEPES pH 7.8, 80 mM KCl, 0.5 mM EDTA, 0.5 mM EGTA, 6% glycerol, 35 ng/ul poly-dIdC, 1% milk, 1 h, room temperature; high values mean tight binding
Conditions: dsDNA, one strand shown
The reader will find reported binding signal values listed item by item below.
# output: bare number, implied unit z-score

Observe how each entry below is paired with its result.
>  <input-sequence>
CCGATTAACATCAGGCGTTTCCCTGATGTTAATCGGGTCTTGATTCGCTTGACGCTGCTG

>  <binding signal, z-score>
1.54

$$$$
>  <input-sequence>
CCGATTAACATCAATTTACCCCCTGATGTTAATCGGGTCTTGATTCGCTTGACGCTGCTG

>  <binding signal, z-score>
3.42

$$$$
>  <input-sequence>
CCGATTAACATCAAGGGGGGAAATGATGTTAATCGGGTCTTGATTCGCTTGACGCTGCTG

>  <binding signal, z-score>
4.47

$$$$
>  <input-sequence>
CCGATTAACATCAGGACATCCCATGATGTTAATCGGGTCTTGATTCGCTTGACGCTGCTG

>  <binding signal, z-score>
3.93

$$$$
>  <input-sequence>
CCGATTAACATCAGGGGAGTAAATGATGTTAATCGGGTCTTGATTCGCTTGACGCTGCTG

>  <binding signal, z-score>
1.91

$$$$

Query: # lookup: binding signal of CCGATTAACATCAGGGGCCCCCCTGATGTTAATCGGGTCTTGATTCGCTTGACGCTGCTG
Result: 7.07

Query: Now consider CCGATTAACATCAGGAGACTCCCTGATGTTAATCGGGTCTTGATTCGCTTGACGCTGCTG .
Result: 1.79

Query: And for CCGATTAACATCAAAGGAAATTCTGATGTTAATCGGGTCTTGATTCGCTTGACGCTGCTG ?
Result: 1.56

Query: Same read-out for CCGATTAACATCAGGACGTTCCCTGATGTTAATCGGGTCTTGATTCGCTTGACGCTGCTG ?
Result: 1.51

====

Target: GST-Co-NF-kB (Capsaspora owczarzaki, UniProt F1ARL5 200-546)
Sequence: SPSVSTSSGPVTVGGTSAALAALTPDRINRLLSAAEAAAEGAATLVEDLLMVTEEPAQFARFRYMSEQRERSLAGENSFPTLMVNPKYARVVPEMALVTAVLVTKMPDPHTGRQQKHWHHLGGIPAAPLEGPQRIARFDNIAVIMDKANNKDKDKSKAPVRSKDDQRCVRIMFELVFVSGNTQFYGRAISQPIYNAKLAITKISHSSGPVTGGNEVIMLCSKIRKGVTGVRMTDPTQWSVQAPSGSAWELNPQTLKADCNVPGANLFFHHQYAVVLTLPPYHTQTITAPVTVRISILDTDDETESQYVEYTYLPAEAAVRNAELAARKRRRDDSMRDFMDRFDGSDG
Test: protein-binding microarray (PBM); PBM: ~300 nM protein, 6 mM HEPES pH 7.8, 80 mM KCl, 0.5 mM EDTA, 0.5 mM EGTA, 6% glycerol, 35 ng/ul poly-dIdC, 1% milk, 1 h, room temperature; high values mean tight binding
Conditions: dsDNA, one strand shown
property-measured: binding signal (z-score)
Form entry: value (z-score) — number only.

# count of solved cases: 3
>  <input-sequence>
CCGATTAACATCAATATTTCCCCTGATGTTAATCGGGTCTTGATTCGCTTGACGCTGCTG

>  <binding signal / z-score>
10.7

$$$$
>  <input-sequence>
CCGATTAACATCAACTTTGGGAATGATGTTAATCGGGTCTTGATTCGCTTGACGCTGCTG

>  <binding signal / z-score>
1.7

$$$$
>  <input-sequence>
CCGATTAACATCAGGGGGATTACTGATGTTAATCGGGTCTTGATTCGCTTGACGCTGCTG

>  <binding signal / z-score>
5.85

$$$$

Query: Find the measured binding signal: item CCGATTAACATCAGGACGCCCCCTGATGTTAATCGGGTCTTGATTCGCTTGACGCTGCTG , target or system GST-Co-NF-kB (Capsaspora owczarzaki, UniProt F1ARL5 200-546).
Result: 1.59

Query: Request: CCGATTAACATCAAAACCCCCCTTGATGTTAATCGGGTCTTGATTCGCTTGACGCTGCTG
Result: 3.85

====

Biological target: GST-Co-NF-kB (Capsaspora owczarzaki, UniProt F1ARL5 200-546)
Sequence: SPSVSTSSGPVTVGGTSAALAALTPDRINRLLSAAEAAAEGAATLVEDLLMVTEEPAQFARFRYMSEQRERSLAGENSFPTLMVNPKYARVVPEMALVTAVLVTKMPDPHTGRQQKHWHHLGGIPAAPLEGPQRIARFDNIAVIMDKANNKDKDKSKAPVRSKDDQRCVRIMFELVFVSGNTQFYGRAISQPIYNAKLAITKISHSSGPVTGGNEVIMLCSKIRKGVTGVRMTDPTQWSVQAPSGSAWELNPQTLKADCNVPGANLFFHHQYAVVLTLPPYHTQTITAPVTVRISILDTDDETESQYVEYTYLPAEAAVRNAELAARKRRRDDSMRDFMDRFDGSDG
Experiment: protein-binding microarray (PBM); PBM: ~300 nM protein, 6 mM HEPES pH 7.8, 80 mM KCl, 0.5 mM EDTA, 0.5 mM EGTA, 6% glycerol, 35 ng/ul poly-dIdC, 1% milk, 1 h, room temperature; Ap Aiptasia and Nv Nematostella (sea anemones) / Co Capsaspora / Aq Amphimedon (sponge) / Dm Drosophila / Hu human; RHD is the Rel homology domain; high values mean tight binding
Conditions: dsDNA, one strand shown
// classify(record): look up binding signal in ranges Low: < 2 z-score; Mid: ≥ 2 z-score and < 5 z-score; High: ≥ 5 z-score

Please review the entries below; each comes with its answer.
>  <input-sequence>
CCGATTAACATCACATTCCCCCCTGATGTTAATCGGGTCTTGATTCGCTTGACGCTGCTG

>  <target-or-test-system>
GST-Co-NF-kB (Capsaspora owczarzaki, UniProt F1ARL5 200-546)

>  <class>
High

$$$$
>  <input-sequence>
CCGATTAACATCAGGGGGGACTATGATGTTAATCGGGTCTTGATTCGCTTGACGCTGCTG

>  <target-or-test-system>
GST-Co-NF-kB (Capsaspora owczarzaki, UniProt F1ARL5 200-546)

>  <class>
High

$$$$
>  <input-sequence>
CCGATTAACATCAAAATTTACCGTGATGTTAATCGGGTCTTGATTCGCTTGACGCTGCTG

>  <target-or-test-system>
GST-Co-NF-kB (Capsaspora owczarzaki, UniProt F1ARL5 200-546)

>  <class>
Low

$$$$
>  <input-sequence>
CCGATTAACATCAAGGGGAATACTGATGTTAATCGGGTCTTGATTCGCTTGACGCTGCTG

>  <target-or-test-system>
GST-Co-NF-kB (Capsaspora owczarzaki, UniProt F1ARL5 200-546)

>  <class>
High

$$$$
>  <input-sequence>
CCGATTAACATCAACGCCCCCCCTGATGTTAATCGGGTCTTGATTCGCTTGACGCTGCTG

>  <target-or-test-system>
GST-Co-NF-kB (Capsaspora owczarzaki, UniProt F1ARL5 200-546)

>  <class>
Mid

$$$$

Query: Which band does CCGATTAACATCACGGGGTGGCCTGATGTTAATCGGGTCTTGATTCGCTTGACGCTGCTG fall in?
Result: Low

Query: Again, but for CCGATTAACATCATTAGGGAAAATGATGTTAATCGGGTCTTGATTCGCTTGACGCTGCTG
Result: Mid

Query: Repeat with CCGATTAACATCAGGGGATTTAATGATGTTAATCGGGTCTTGATTCGCTTGACGCTGCTG
Result: Mid

Query: And CCGATTAACATCACCCTCGAGGGTGATGTTAATCGGGTCTTGATTCGCTTGACGCTGCTG ?
Result: Low
